- SYSTEM UNDER TEST: CCR2 (Homo sapiens)
- Construct: Membranes were prepared from THP-1 cells; endogenous in cells
- Sequence (P41597 whole entry): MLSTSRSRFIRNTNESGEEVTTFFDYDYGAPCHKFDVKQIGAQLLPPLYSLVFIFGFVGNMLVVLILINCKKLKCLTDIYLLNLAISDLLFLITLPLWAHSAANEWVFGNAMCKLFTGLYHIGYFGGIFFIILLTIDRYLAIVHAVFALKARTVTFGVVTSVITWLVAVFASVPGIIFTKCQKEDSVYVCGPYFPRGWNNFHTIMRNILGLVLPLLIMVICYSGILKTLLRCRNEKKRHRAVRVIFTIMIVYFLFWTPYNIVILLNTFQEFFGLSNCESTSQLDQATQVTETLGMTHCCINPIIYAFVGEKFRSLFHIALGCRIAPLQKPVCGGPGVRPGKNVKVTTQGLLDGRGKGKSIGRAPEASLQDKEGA
- TEST DETAILS: CCR2 receptor membrane binding assay ([125I]MCP-1, THP-1 membranes, SPA beads)
- TEST SETTINGS: THP-1 cell membranes, [125I]MCP-1 displacement, bound radioactivity after 8 h; read-out: hKi
Cut-off 0.02 µM on Ki: below means Yes, at or above means No.

Req: is_below(Ki, 0.02 µM) for COc1nc(OCc2ccc(C(F)(F)F)c(Cl)c2)c(C)c(C(=O)N2CCC(N[C@H]3CCOC[C@H]3OC)CC2)n1 [Example 3j] ?
Resp: Yes

Req: is_below(Ki, 0.02 µM) for CO[C@@H]1COCC[C@@H]1NC1CCN(C(=O)c2ncnc(OCc3ccc(Cl)c(Cl)c3)c2C)CC1 [Example 2d] ?
Resp: Yes

Req: is_below(Ki, 0.02 µM) for COc1nc(OCc2cccc(C(F)(F)F)c2)c(C)c(C(=O)N2CCC(N[C@H]3CCOC[C@H]3OC)CC2)n1 [Example 3h] ?
Resp: Yes

Req: is_below(Ki, 0.02 µM) for COC1COCCC1NC1CCN(C(=O)c2ncnc(OCc3ccc(Cl)c(Cl)c3)c2C)CC1 (stereo not shown) [Example 2a] ?
Resp: Yes

Req: is_below(Ki, 0.02 µM) for CO[C@@H]1COCC[C@@H]1NC1CCN(C(=O)c2nc(C(F)(F)F)nc(OCc3cc(Cl)cc(Cl)c3)c2C)CC1 [Example 3o] ?
Resp: Yes

Next:
Req: is_below(Ki, 0.02 µM) for COc1nc(OCc2ccc(Cl)c(Cl)c2)c(C)c(C(=O)N2CCC(N[C@H]3CCOC[C@H]3OC)CC2)n1 [Example 3m] ?
Resp: Yes

Req: is_below(Ki, 0.02 µM) for CO[C@@H]1COCC[C@@H]1NC1CCN(C(=O)c2nc(C(F)(F)F)nc(OCc3ccc(C(C)(C)C)cc3)c2C)CC1 [Example 3f] ?
Resp: Yes

Req: is_below(Ki, 0.02 µM) for COc1nc(OCc2ccc(C(C)(C)C)cc2)c(C)c(C(=O)N2CCC(N[C@@H]3CCOC[C@@H]3OC)CC2)n1 [Example 3i] ?
Resp: Yes
